ASSAY TARGET: Protein skinhead-1 (Caenorhabditis elegans, UniProt P34707)
Sequence (P34707 whole entry): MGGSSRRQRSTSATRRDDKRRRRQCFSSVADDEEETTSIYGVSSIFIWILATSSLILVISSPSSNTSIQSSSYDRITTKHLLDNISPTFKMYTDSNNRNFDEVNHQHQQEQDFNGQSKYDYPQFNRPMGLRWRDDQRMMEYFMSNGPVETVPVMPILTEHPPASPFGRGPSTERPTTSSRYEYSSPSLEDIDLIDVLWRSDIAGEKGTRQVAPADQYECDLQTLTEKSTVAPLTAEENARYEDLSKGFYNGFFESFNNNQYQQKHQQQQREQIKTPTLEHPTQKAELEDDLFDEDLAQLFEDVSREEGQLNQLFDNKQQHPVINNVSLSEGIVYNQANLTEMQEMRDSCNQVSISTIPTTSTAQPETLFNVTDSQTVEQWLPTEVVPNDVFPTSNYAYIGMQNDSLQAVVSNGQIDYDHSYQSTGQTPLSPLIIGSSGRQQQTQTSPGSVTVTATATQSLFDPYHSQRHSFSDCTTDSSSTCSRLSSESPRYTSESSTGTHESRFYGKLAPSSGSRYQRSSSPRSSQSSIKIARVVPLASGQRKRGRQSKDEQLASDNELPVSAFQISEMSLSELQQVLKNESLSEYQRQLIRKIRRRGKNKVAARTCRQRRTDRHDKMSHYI
Type: functional
Activity calls are given as the source filed them.
Hello, when you answer, please use one of the following outcomes: active, inactive

Prompt: Hi, sorry to bother you, what did the test record for `COc1ccccc1-n1cc([C@@H]2C[C@H]3CN(c4ccccc4)C(=O)[C@]34CCCN24)cn1` ?
Completion: inactive

Prompt: Hi, sorry to bother you, what did the test record for `Clc1ccc(-c2csc(-c3ccncc3)n2)cc1` ?
Completion: active

Prompt: Hi, sorry to bother you, what did the test record for NC(=O)C1CCCN(C(=O)NC2CCCCC2)C1 (centres undefined) ?
Completion: inactive

Prompt: Hi, sorry to bother you, what did the test record for `Cc1ccc(/C=C/c2ccc3cccc(O)c3n2)s1` ?
Completion: inactive
